Target: Env of HIV-1 strain 3365.v2.c20 (HIV-1)
Assay: cell-based or functional assay
Each entry below lists one item and its recorded neutralization IC50 value.

>>> assay_value("γ52κ3 (antibody, V domains shown) VH: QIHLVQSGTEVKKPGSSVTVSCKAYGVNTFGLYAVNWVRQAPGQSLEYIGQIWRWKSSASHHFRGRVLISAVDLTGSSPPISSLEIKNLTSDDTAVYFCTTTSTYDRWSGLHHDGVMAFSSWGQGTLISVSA VL: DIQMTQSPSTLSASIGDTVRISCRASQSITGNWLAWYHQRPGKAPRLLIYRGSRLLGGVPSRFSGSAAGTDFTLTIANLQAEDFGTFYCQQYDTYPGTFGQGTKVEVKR")
"> 15 µg/mL"

Next binder, please.
Output measured neutralization IC50 for this item: γ15κ11 (antibody, V domains shown) VH: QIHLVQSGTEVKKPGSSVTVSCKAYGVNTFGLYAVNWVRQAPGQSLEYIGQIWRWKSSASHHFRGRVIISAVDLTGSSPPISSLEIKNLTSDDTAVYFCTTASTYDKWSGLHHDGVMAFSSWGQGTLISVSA VL: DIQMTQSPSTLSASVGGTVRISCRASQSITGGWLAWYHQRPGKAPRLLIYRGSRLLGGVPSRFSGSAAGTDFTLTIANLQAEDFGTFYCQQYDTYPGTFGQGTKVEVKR > 15 µg/mL
